Tested on: OCT1
Assay: Ratio of drug uptake in human OCT1 expressing HEK293 cells at 2.5 uM to drug uptake in empty vector transfected human HEK293 cells at 2.5 uM
Type: ADME, cell-based
Provide the reported uptake ratio at 2.5 µM of each item.

Completed entries (count: 2):
>>> measurement("CC(CCc1ccc(O)cc1)NCC(O)c1ccc(O)cc1 (stereo not given)")
7.1
>>> measurement("CN[C@@H]1CCc2[nH]c3ccc(C(N)=O)cc3c2C1")
33.1

Value sought for every listed compound: uptake ratio at 2.5 µM.
1. N=C(N)NCc1cccc(I)c1
2. NCC(O)c1cccc(O)c1 (stereo not given)
3. CCN(CC)CCNC(=O)c1ccc(NS(C)(=O)=O)cc1 [SEMATILIDE]

[10.1, 2.1, 3.5]

All values here come from ChEMBL document CHEMBL4828702.
